Test system: UO-31 renal
Assay: NCI tumour cell line growth inhibition, 48 h
Measured TGI, listed per entry for reference.
Entry rule: numbers only, all in µM.

>>> reported_value("CN(C)c1ccc(C=Nc2ccc(Oc3ccc(Cl)cc3)c(Cl)c2)cc1")
22.9

Please turn your attention to the following entry.
# TGI (molecule: CCOc1cc(C2SCC(=O)N2c2ccc(Oc3ccc(Cl)cc3)c(Cl)c2)ccc1O (centres undefined) ) is 21.7

====

Form field: TGI (one value per entry).
Test system: SK-MEL-28 melanoma
Assay: NCI tumour cell line growth inhibition, 48 h
Where a SMILES comes first, the peptide text is derived from it. [ ]: non-standard residue; d: D form. The star is where a group is joined. ξ: configuration not given here. ξF = NC(Cc1ccccc1)C(=O)O; Cbz = O=C(OCc1ccccc1)*; Aib = CC(C)(N)C(=O)O; NHNH2 = NN*

>>> reported_value("O=C1NC(Cc2ccc(O)cc2)C(=O)N2CCCC12 (stereo unspecified)")
"> 100 µM"
>>> reported_value("CC(C)(NC(=O)OCc1ccccc1)C(=O)NC(Cc1ccccc1)C(=O)NN (stereo unspecified) (Cbz-[Aib]-[ξF]-NHNH2)")
"> 100 µM"
>>> reported_value("CCc1n[nH]c(=O)n1/N=C/c1ccccc1O")
"> 100 µM"
>>> reported_value("Nc1nccc(-c2c(-c3ccc(F)cc3)ncn2C2CCNCC2)n1")
"> 25 µM"
>>> reported_value("N#CC12Cc3cc4c(cc3-c3cccc(c31)CCN2C(=O)c1ccccc1)OCO4 (stereo unspecified)")
"> 100 µM"

Next compound, please.
# TGI (compound: `CCOC(=O)c1cc(C(=O)c2cc(OC)c(OC)c(OC)c2)n2ncccc12` ) is > 100 µM
